List of inhibition in vivo at 100 mg/kg values.
# Test system: Wistar strain of male rats
# test details: Anti-inflammatory activity (acute carrageenin-induced inflammatory test, hindpaw)
# Type: in vivo, rat (Wistar)
# run parameters: Rattus norvegicus, po, 3 h, read-out: Anti-inflammatory activity, inflammation inhibitory ratio
# Method: Next, several tests for determining the pharmacological properties, in that acute toxicity, anti-pyretic activity, analgesic activity and anti-inflammatory activity of the present 1,1,3,5-substituted biuret compounds of the formula (1) were conducted and the test results are shown in Table (2). In the tests, each compounds to be tested was used as a suspension in 0.25% carboxymethylcellulose solution. Methods for testing are explained as follows: […]

molecule: CN(C)C(=O)N(C)C(=O)NC1CCCCC1 [compound 35, 1,1,3-Trimethyl-5-cyclohexylbiuret]
study system: Wistar strain of male rats
inhibition in vivo at 100 mg/kg, %: 24
//
molecule: CCN(C(=O)N(C)C(=O)NC)c1ccccc1 [Compound No. 58, 1-ethyl-3,5-dimethyl-1-phenylbiuret]
study system: Wistar strain of male rats
inhibition in vivo at 100 mg/kg, %: 60
//
molecule: CNC(=O)NC(=O)N(C)c1ccccc1 [Compound No. 49, 1,5-dimethyl-1-phenylbiuret]
study system: Wistar strain of male rats
inhibition in vivo at 100 mg/kg, %: 32
//
molecule: CCN(C)C(=O)NC(=O)NCc1ccccc1 [compound 44, 1-Methyl-1-ethyl-5-benzylbiuret]
study system: Wistar strain of male rats
inhibition in vivo at 100 mg/kg, %: 47

----------
# Tested on: Wistar strain of male rats
# test details: Anti-pyretic activity (dry-yeast-induced fever)
# Assay type: in vivo, rat (Wistar)
# run parameters: oral (dose not given), up to 4 hours after administration
# Method: Next, several tests for determining the pharmacological properties, in that acute toxicity, anti-pyretic activity, analgesic activity and anti-inflammatory activity of the present 1,1,3,5-substituted biuret compounds of the formula (1) were conducted and the test results are shown in Table (2). In the tests, each compounds to be tested was used as a suspension in 0.25% carboxymethylcellulose solution. Methods for testing are explained as follows: […]
Param threshold (70%) applies to Anti-pyretic activity, inhibitory ratio (febril index); output yes (1) when value >= threshold, no (0) when value < threshold.

smiles text: CN(C)C(=O)N(C)C(=O)Nc1ccccc1
classification: yes (1)
--
smiles text: CN(C)C(=O)N(C)C(=O)Nc1ccccc1F
classification: yes (1)
--
smiles text: CC(=O)c1ccc(NC(=O)N(C)C(=O)N(C)C)cc1
classification: no (0)
--
smiles text: CN(C)C(=O)N(C)C(=O)Nc1ccc(Br)cc1
classification: yes (1)
--
smiles text: CN(C)C(=O)N(C)C(=O)Nc1ccc(N(C)C)cc1
classification: no (0)
--
smiles text: CCN(C(=O)N(C)C(=O)NC)c1ccc(OC)cc1
classification: no (0)
--
smiles text: CN(C)C(=O)N(C)C(=O)Nc1ccc(Cl)c(Cl)c1
classification: no (0)

----------
List of Acute toxicity: death number of mice/number of mice tested values.
# System: ddy strain of male mice
# test details: Acute toxicity (oral, mice, 7 days observation)
# Format: in vivo
# run parameters: 2000 mg/kg oral
measured metric: Acute toxicity: death number of mice/number of mice tested

compound: CN(C)C(=O)NC(=O)Nc1ccc(Cl)cc1 [Compound No. 3]
result: 0/4
--
compound: Cc1ccc(NC(=O)N(C)C(=O)N(C)C)cc1C [Compound No. 30]
result: 1/4
--
compound: O=C(NC(=O)N1CCCC1)Nc1ccccc1 [compound 67, 1,1-Tetramethylene-5-phenylbiuret]
result: 0/4
--
compound: CSc1ccc(NC(=O)N(C)C(=O)N(C)C)cc1 [compound 34]
result: 4/4
--
compound: Cc1cccc(NC(=O)N(C)C(=O)N(C)C)c1C [compound 29]
result: 4/4
--
compound: CCN(C(=O)Nc1ccccc1)C(=O)N(C)C [compound 36, 1,1-Dimethyl-3-ethyl-5-phenylbiuret]
result: 3/4
--
compound: CNC(=O)N(C)C(=O)N(c1ccccc1)c1ccccc1 [compound 65, 1,1-Diphenyl-3,5-dimethylbiuret]
result: 4/4
--
compound: CCCCN(C(=O)Nc1ccccc1)C(=O)N(C)C [compound 38, 1,1-Dimethyl-3-n-butyl-5-phenylbiuret]
result: 3/4

----------
# Test system: ddy strain of male mice
# test details: Acute toxicity (oral, mice, 7 days observation)
# Type: in vivo
# run parameters: mouse, in vivo
measured metric: Acute toxicity: death number of mice/number of mice tested

smiles text: CN(C(=O)Nc1ccccc1)C(=O)N1CCOCC1
result: 0/4
//
smiles text: CN(C)C(=O)NC(=O)Nc1ccccc1
result: 0/4
//
smiles text: O=C(NC(=O)N1CCOCC1)Nc1ccccc1
result: 0/4
//
smiles text: CN(C(=O)Nc1ccccc1)C(=O)N1CCCC1
result: 2/4

----------
# System: Wistar strain of male rats
# test details: Anti-pyretic activity (dry-yeast-induced fever)
# Type: in vivo, rat (Wistar)
# run parameters: oral (dose not given), up to 4 hours after administration
List of Anti-pyretic activity, inhibitory ratio (febril index) values.
measured metric: Anti-pyretic activity, inhibitory ratio (febril index) (%)

compound: COc1ccc(NC(=O)N(C)C(=O)N(C)C)cc1OC [compound 24]
result: 18
--
compound: CCN(C(=O)N(C)C(=O)NC)c1ccc(Cl)cc1 [compound 60]
result: 88
--
compound: CCN(C(=O)N(C)C(=O)NC)c1ccccc1Cl [compound 59]
result: 64
--
compound: COc1ccccc1NC(=O)N(C)C(=O)N(C)C [compound 22]
result: 13
--
compound: COc1ccc(NC(=O)N(C)C(=O)N(C)C)cc1 [Compound No. 23]
result: 75
--
compound: CCN(C(=O)Nc1ccccc1)C(=O)N(C)C [compound 36, 1,1-Dimethyl-3-ethyl-5-phenylbiuret]
result: 12
--
compound: CNC(=O)NC(=O)N(C)c1ccccc1 [Compound No. 49, 1,5-dimethyl-1-phenylbiuret]
result: 84
--
compound: CCCNC(=O)N(C)C(=O)N(C)c1ccccc1 [Compound No. 55, 1,3-Dimethyl-1-phenyl-5-n-propylbiuret]
result: 80
--
compound: COc1cc(NC(=O)N(C)C(=O)N(C)C)cc(OC)c1OC [compound 25]
result: 23

----------
List of inhibition in vivo at 100 mg/kg values.
# Tested on: ddy strain of male mice
# test details: Analgesic activity, acetic acid-induced stretching method
# Type: in vivo, mouse (ddy)
# run parameters: Mus musculus, po, read-out: Analgesic activity, acetic acid-induced stretching method, inhibitory ratio
measured metric: inhibition in vivo at 100 mg/kg

compound: CCNC(=O)NC(=O)N(C)c1ccccc1 [compound 50, 1-Methyl-1-phenyl-5-ethylbiuret]
study system: ddy strain of male mice
result: 50%
--
compound: CNC(=O)N(C)C(=O)N1CCOCC1 [compound 72]
study system: ddy strain of male mice
result: 50%
--
compound: CN(C)C(=O)NC(=O)Nc1ccccc1 [Compound No. 1]
study system: ddy strain of male mice
result: 50%
--
compound: CN(C)C(=O)NC(=O)Nc1ccc(Cl)cc1 [Compound No. 3]
study system: ddy strain of male mice
result: 50%
--
compound: CN(C(=O)Nc1ccccc1)C(=O)N1CCCC1 [compound 68]
study system: ddy strain of male mice
result: 75%
--
compound: CCN(C(=O)N(C)C(=O)NC)c1ccccc1Cl [compound 59]
study system: ddy strain of male mice
result: 37.5%
--
compound: CN(C(=O)Nc1ccccc1)C(=O)N1CCOCC1 [compound 73]
study system: ddy strain of male mice
result: 50%
--
compound: CCNC(=O)N(C)C(=O)N(C)c1ccccc1 [compound 54, 1,3-Dimethyl-1-phenyl-5-ethylbiuret]
study system: ddy strain of male mice
result: 37.5%
--
compound: CCCNC(=O)NC(=O)N(C)c1ccccc1 [compound 51, 1-Methyl-1-phenyl-5-n-propylbiuret]
study system: ddy strain of male mice
result: 37.5%

----------
# Tested on: ddy strain of male mice
# test details: Acute toxicity (oral, mice, 7 days observation)
# Type: in vivo
# run parameters: 2000 mg/kg oral
# Method: Next, several tests for determining the pharmacological properties, in that acute toxicity, anti-pyretic activity, analgesic activity and anti-inflammatory activity of the present 1,1,3,5-substituted biuret compounds of the formula (1) were conducted and the test results are shown in Table (2). In the tests, each compounds to be tested was used as a suspension in 0.25% carboxymethylcellulose solution. Methods for testing are explained as follows: […]
measured metric: Acute toxicity: death number of mice/number of mice tested

smiles text: Cc1ccc(NC(=O)NC(=O)N(C)C)cc1
result: 0/4

smiles text: CN(C)C(=O)N(C)C(=O)Nc1ccc(Cl)cc1Cl
result: 3/4

smiles text: CCN(CC)C(=O)N(C)C(=O)Nc1ccccc1
result: 1/4

smiles text: CCCCN(C)C(=O)N(C)C(=O)Nc1ccccc1
result: 3/4

smiles text: CN(C)C(=O)N(C)C(=O)Nc1ccccc1Cl
result: 0/4

smiles text: COc1ccc(NC(=O)N(C)C(=O)N(C)C)cc1OC
result: 4/4

smiles text: Cc1c(Cl)cccc1NC(=O)N(C)C(=O)N(C)C
result: 4/4

smiles text: CCN(C(=O)N(C)C(=O)NC)c1ccc(Cl)cc1
result: 3/4
